# experimental system: T1, human ARG1 (Homo sapiens, UniProt P05089)
# T1 construct: Avi tag (N); His10 (after a GGG linker) (C); made in house; host or cells: E. coli BL21 (DE3)
# T1 sequence (P05089 with tags, fused parts or gaps): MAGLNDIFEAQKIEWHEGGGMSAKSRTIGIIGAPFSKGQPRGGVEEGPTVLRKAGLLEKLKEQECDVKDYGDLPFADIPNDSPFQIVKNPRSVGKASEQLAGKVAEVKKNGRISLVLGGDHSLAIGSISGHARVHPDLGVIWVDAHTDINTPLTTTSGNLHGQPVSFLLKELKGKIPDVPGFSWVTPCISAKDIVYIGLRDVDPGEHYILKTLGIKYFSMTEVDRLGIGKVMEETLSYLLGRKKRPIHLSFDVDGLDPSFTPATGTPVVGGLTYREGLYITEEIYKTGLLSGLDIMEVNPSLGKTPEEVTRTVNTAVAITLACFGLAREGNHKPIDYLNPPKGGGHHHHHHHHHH
# assay info: Bio-Layer Interferometry (OctetRED) binding, human ARG1
# particulars: Fab analyte up to 120 nM, screening assay on anti-His surface
measurement label: Results, binding to human ARG1 (BLI)

Prompt: Looking for the measured Results, binding to human ARG1 (BLI) of C0021128: anti-ARG2 antibody, VH SEQ ID NO: 162, VL SEQ ID NO: 167 (antibody, listed as Homo sapiens, V domains shown, C0021128) VH: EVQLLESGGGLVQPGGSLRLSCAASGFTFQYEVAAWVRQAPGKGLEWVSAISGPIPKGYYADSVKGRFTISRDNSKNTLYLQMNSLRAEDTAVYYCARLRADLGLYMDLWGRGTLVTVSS VL: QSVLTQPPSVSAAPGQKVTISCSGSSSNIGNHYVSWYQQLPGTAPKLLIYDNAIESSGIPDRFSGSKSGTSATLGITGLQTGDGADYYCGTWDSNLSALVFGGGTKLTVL , can you help?
Response: No binding observed

Prompt: Looking for the measured Results, binding to human ARG1 (BLI) of C0021139: anti-ARG2 antibody, VH SEQ ID NO: 212, VL SEQ ID NO: 217 (antibody, listed as Homo sapiens, V domains shown, C0021139) VH: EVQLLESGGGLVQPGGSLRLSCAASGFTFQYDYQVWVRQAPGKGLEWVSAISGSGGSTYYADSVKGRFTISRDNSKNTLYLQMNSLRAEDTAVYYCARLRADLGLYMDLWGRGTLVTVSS VL: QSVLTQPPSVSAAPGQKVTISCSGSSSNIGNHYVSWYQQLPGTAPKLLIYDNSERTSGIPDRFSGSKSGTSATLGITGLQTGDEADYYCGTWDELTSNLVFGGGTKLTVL , can you help?
Response: No binding observed

Source of measurements: patent US20220403048A1
